Biological target: human glucagon receptor (human) (UniProt P47871)
Sequence (P47871 26-477): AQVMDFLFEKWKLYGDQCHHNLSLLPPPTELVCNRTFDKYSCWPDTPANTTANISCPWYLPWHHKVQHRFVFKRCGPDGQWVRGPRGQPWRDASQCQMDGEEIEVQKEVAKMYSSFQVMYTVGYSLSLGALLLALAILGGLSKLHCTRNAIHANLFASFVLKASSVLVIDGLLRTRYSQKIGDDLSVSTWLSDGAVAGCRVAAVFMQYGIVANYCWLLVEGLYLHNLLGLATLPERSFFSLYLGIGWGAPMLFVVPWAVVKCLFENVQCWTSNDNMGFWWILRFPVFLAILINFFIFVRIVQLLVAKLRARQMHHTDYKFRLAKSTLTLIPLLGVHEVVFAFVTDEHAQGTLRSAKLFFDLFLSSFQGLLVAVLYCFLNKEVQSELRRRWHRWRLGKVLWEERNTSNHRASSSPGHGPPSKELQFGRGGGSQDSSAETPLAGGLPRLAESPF
Assay: cell-based or functional assay
ATTRIBUTE_MEASURED: Relative cAMP EC50 (nM)
Reply with just the number (in nM).

Kindly indicate its recorded Relative cAMP EC50. Item: YXQGTFTSDXSKXLDKKAQXAFIEYLIEXGPSSGAPPPSGSE (synthetic construct; SITE 2: note = 2-Aminoisobutyric Acid; SITE 10: note = 3-(4-Pyridyl)-L-alanine; SITE 13: note = alpha-methyl-leucine; SITE 17: note = Lysine is chemically modified through conjugation of the epsilon-amino group of the Lysine side chain with (gamma-Glu)2-CO-(CH2)16-CO2H; SITE 20:) [Example 904]
9.88

Kindly indicate its recorded Relative cAMP EC50. Item: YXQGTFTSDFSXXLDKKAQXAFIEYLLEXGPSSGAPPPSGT (non-natural residues, acylated Lys (AEEA-γGlu-C18 diacid), C-terminal amide; synthetic construct; SITE 2: note = 2-Aminoisobutyric Acid; SITE 12: note = L-ornithine; SITE 13: note = alpha-methyl-leucine; SITE 17: note = Lysine is chemically modified through conjugation of the epsilon-amino group of the Lysine side chain with (2-[2-(2-Amino-ethoxy)-ethoxy]-acetyl)-(gamma-Glu)) [Example 200]
2.83

Kindly indicate its recorded Relative cAMP EC50. Item: YXQGTFTSDXXQXLDXKAQXQFIQXLIEXGPSSGAPPPSGGGE (not fully specified; N-methyl-Tyr, non-natural residues, acylated Lys (γGlu-C18 diacid), C-terminal amide; synthetic construct; SITE 1: note = N-methyl-tyrosine; SITE 2: note = 2-Aminoisobutyric Acid; SITE 10: note = 3-(4-Pyridyl)-L-alanine; SITE 11: note = alpha-methyl-L-serine; SITE 13: note = alpha-methyl-leucine; SITE 16: note = L-ornithine; SITE 17: note = Lysine is chemically modified …) [Example 1134]
2.57

Kindly indicate its recorded Relative cAMP EC50. Item: YXQGTFTSDFSXXLDKKAQXAFIEYLLEGGPSSGAPPPEGS (synthetic construct; SITE 2: note = 2-Aminoisobutyric Acid; SITE 12: note = L-ornithine; SITE 13: note = alpha-methyl-leucine; SITE 17: note = Lysine is chemically modified through conjugation of the epsilon-amino group of the Lysine side chain with (2-[2-(2-Amino-ethoxy)-ethoxy]-acetyl)-(gamma-Glu)) [Example 130]
3.74

Kindly indicate its recorded Relative cAMP EC50. Item: YXQGTXTSDXXIXLDXKAQXXFIEXLTEGGPSSGEPPPSGTGE (synthetic construct; SITE 2: note = 2-Aminoisobutyric Acid; SITE 6: note = alpha-methyl-2-fluoro-L-phenylalanine; SITE 10: note = 3-(4-Pyridyl)-L-alanine; SITE 11: note = alpha-methyl-L-serine; SITE 13: note = alpha-methyl-leucine; SITE 16: note = L-ornithine; SITE 17: note = Lysine is chemically mo) [Example 543]
4.56

Kindly indicate its recorded Relative cAMP EC50. Item: YXQGTFTSDFSQXLDKKAQXAFIEYLLEAGPSSXAPPPSGT (no C-terminal amide; synthetic construct; SITE 2: note = 2-Aminoisobutyric Acid; SITE 13: note = alpha-methyl-leucine; SITE 17: note = Lysine is chemically modified through conjugation of the epsilon-amino group of the Lysine side chain with (2-[2-(2-Amino-ethoxy)-ethoxy]-acetyl)-(gamma-Glu)-CO-(CH2) 16-CO2H; SITE 20: n) [Example 780]
4.84
